Species: Rattus norvegicus
Assay: Open TG-GATES - Regimen: Daily Repeat
Type: toxicity, organism-based, Sprague-Dawley
Design: regimen Daily Repeat, gender Male, age 6 weeks
Settings: in vivo, po, 0 mg/kg, […], tissue Kidney, route gavage, dose level Control, time 14 day
Record form. Attribute: KIDNEY_TOTAL. Fill in for each entry.
Use g as the unit, but write only the number.

Looking up NC(=O)N1c2ccccc2C=Cc2ccccc21 [CARBAMAZEPINE] , I found its KIDNEY_TOTAL recorded as 2.5

Looking up COc1ccc(Cc2nccc3cc(OC)c(OC)cc23)cc1OC [PAPAVERINE] , I found its KIDNEY_TOTAL recorded as 2.5

Looking up CSc1ccc2c(c1)N(CCC1CCCCN1C)c1ccccc1S2 (stereo not given) [THIORIDAZINE] , I found its KIDNEY_TOTAL recorded as 2.6

Looking up O=C(O)c1cc(/N=N/c2ccc(S(=O)(=O)Nc3ccccn3)cc2)ccc1O [SULFASALAZINE] , I found its KIDNEY_TOTAL recorded as 2.4

Looking up Clc1ccccc1CN1CCc2sccc2C1 [TICLOPIDINE] , I found its KIDNEY_TOTAL recorded as 2.4

Looking up CC(=O)Oc1ccccc1C(=O)O [ASPIRIN] , I found its KIDNEY_TOTAL recorded as 2.5

Looking up CN(C)CCC=C1c2ccccc2CCc2ccccc21 [AMITRIPTYLINE] , I found its KIDNEY_TOTAL recorded as 2.5

Looking up C[C@H](CS)C(=O)N1CCC[C@H]1C(=O)O [CAPTOPRIL] , I found its KIDNEY_TOTAL recorded as 2.6

Looking up COc1ccc2c(c1)c(CC(=O)O)c(C)n2C(=O)c1ccc(Cl)cc1 [INDOMETHACIN] , I found its KIDNEY_TOTAL recorded as 2.6

Looking up NC(=O)N/N=C/c1ccc([N+](=O)[O-])o1 [NITROFURAZONE] , I found its KIDNEY_TOTAL recorded as 2.5

----------
Species on record: Rattus norvegicus
Assay: Open TG-GATES - Regimen: Daily Repeat
Assay type: toxicity, organism-based, Sprague-Dawley
Parameters: regimen Daily Repeat, gender Male, age 6 weeks
Settings: in vivo, po, 0 mg/kg, […], tissue Plasma, route gavage, dose level Control, time 14 day
Entry class follows DBIL: one = under 0.01 mg/dL, two = from 0.01 mg/dL up to 0.07 mg/dL, three = 0.07 mg/dL and over

Ask: Band assignment needed for CSc1ccc2c(c1)N(CCC1CCCCN1C)c1ccccc1S2 (stereo not given) please.
Reply: two

Ask: Band assignment needed for CCc1cc(C(N)=S)ccn1 [ETHIONAMIDE] please.
Reply: two

Ask: Band assignment needed for "NC(=O)N/N=C/c1ccc([N+](=O)[O-])o1" please.
Reply: two

Ask: Band assignment needed for "O=C(O)c1cc(/N=N/c2ccc(S(=O)(=O)Nc3ccccn3)cc2)ccc1O" please.
Reply: three

Ask: Band assignment needed for "CO[C@H]1/C=C/O[C@@]2(C)Oc3c(C)c(O)c4c(O)c(c(/C=N/N5CCN(C)CC5)c(O)c4c3C2=O)NC(=O)/C(C)=C\C=C\[C@H](C)[C@H](O)[C@@H](C)[C@@H](O)[C@@H](C)[C@H](OC(C)=O)[C@@H]1C" please.
Reply: two

Ask: Band assignment needed for "CC(=O)Oc1ccccc1C(=O)O" please.
Reply: three

Ask: Band assignment needed for "Clc1ccccc1CN1CCc2sccc2C1" please.
Reply: two

Ask: Band assignment needed for "O=C(O)c1cn(C2CC2)c2cc(N3CCNCC3)c(F)cc2c1=O" please.
Reply: one

Ask: Band assignment needed for "C[C@H](CS)C(=O)N1CCC[C@H]1C(=O)O" please.
Reply: one

Ask: Band assignment needed for NC(=O)N1c2ccccc2C=Cc2ccccc21 [CARBAMAZEPINE] please.
Reply: three

Ask: Band assignment needed for "COc1ccc(Cc2nccc3cc(OC)c(OC)cc23)cc1OC" please.
Reply: one

Ask: Band assignment needed for "Cn1c(=O)c2[nH]cnc2n(C)c1=O.O" please.
Reply: one

Ask: Band assignment needed for "CN(C)CCC=C1c2ccccc2CCc2ccccc21" please.
Reply: two

Ask: Band assignment needed for "COc1ccc2c(c1)c(CC(=O)O)c(C)n2C(=O)c1ccc(Cl)cc1" please.
Reply: two

Ask: Band assignment needed for "CCCC(CCC)C(=O)O" please.
Reply: three

----------
Species: Rattus norvegicus
Test: Open TG-GATES - Regimen: Single
Format: toxicity, organism-based, Sprague-Dawley
Set-up: regimen Single, gender Male, age 6 weeks
Settings: in vivo, po, 300 mg/kg, 6 h, tissue Blood, route gavage, dose level Middle
MEASUREMENT_KIND: Bas (%)
Use % as the unit, but write only the number.

Looking up "O=C(O)c1cn(C2CC2)c2cc(N3CCNCC3)c(F)cc2c1=O" , I found its Bas recorded as 0

Looking up "C[C@H](CS)C(=O)N1CCC[C@H]1C(=O)O" , I found its Bas recorded as 0

Looking up CCc1cc(C(N)=S)ccn1 [ETHIONAMIDE] , I found its Bas recorded as 0

Looking up "Clc1ccccc1CN1CCc2sccc2C1" , I found its Bas recorded as 0.2

Looking up "O=C(O)c1cc(/N=N/c2ccc(S(=O)(=O)Nc3ccccn3)cc2)ccc1O" , I found its Bas recorded as 0

----------
Species on record: Rattus norvegicus
Test: Open TG-GATES - Regimen: Single
Type: toxicity, organism-based, Sprague-Dawley
Set-up: regimen Single, gender Male, age 6 weeks
Conditions: in vivo, po, 300 mg/kg, 9 h, tissue Plasma, route gavage, dose level Middle
Record form. Attribute: LDH. Fill in for each entry.
Use IU/L as the unit, but write only the number.

Looking up CCc1cc(C(N)=S)ccn1 [ETHIONAMIDE] , I found its LDH recorded as 86.2

Looking up O=C(O)c1cn(C2CC2)c2cc(N3CCNCC3)c(F)cc2c1=O [CIPROFLOXACIN] , I found its LDH recorded as 79.8

Looking up Clc1ccccc1CN1CCc2sccc2C1 [TICLOPIDINE] , I found its LDH recorded as 129.6

Looking up C[C@H](CS)C(=O)N1CCC[C@H]1C(=O)O [CAPTOPRIL] , I found its LDH recorded as 72.6

Looking up O=C(O)c1cc(/N=N/c2ccc(S(=O)(=O)Nc3ccccn3)cc2)ccc1O [SULFASALAZINE] , I found its LDH recorded as 183

----------
Organism: Rattus norvegicus
Test: Open TG-GATES - Regimen: Single
Type: toxicity, organism-based, Sprague-Dawley
Parameters: regimen Single, gender Male, age 6 weeks
Settings: in vivo, po, 0 mg/kg, 9 h, tissue Blood, route gavage, dose level Control
The label 1 (yes) is reserved for Neu strictly under 20%; 0 (no) covers values equal to or above it.

Ask: Strictly below 20% in Neu? "NC(=O)N/N=C/c1ccc([N+](=O)[O-])o1"
Reply: 0 (no)

Ask: Strictly below 20% in Neu? "COc1ccc(Cc2nccc3cc(OC)c(OC)cc23)cc1OC"
Reply: 1 (yes)

Ask: Strictly below 20% in Neu? "O=C(O)c1cc(/N=N/c2ccc(S(=O)(=O)Nc3ccccn3)cc2)ccc1O"
Reply: 0 (no)

Ask: Strictly below 20% in Neu? "CC(=O)Oc1ccccc1C(=O)O"
Reply: 1 (yes)

Ask: Strictly below 20% in Neu? "Clc1ccccc1CN1CCc2sccc2C1"
Reply: 1 (yes)

Ask: Strictly below 20% in Neu? "CN(C)CCC=C1c2ccccc2CCc2ccccc21"
Reply: 1 (yes)

Ask: Strictly below 20% in Neu? "C[C@H](CS)C(=O)N1CCC[C@H]1C(=O)O"
Reply: 1 (yes)

Ask: Strictly below 20% in Neu? "Cn1c(=O)c2[nH]cnc2n(C)c1=O.O"
Reply: 1 (yes)

Ask: Strictly below 20% in Neu? "O=C(O)c1cn(C2CC2)c2cc(N3CCNCC3)c(F)cc2c1=O"
Reply: 1 (yes)

Ask: Strictly below 20% in Neu? CSc1ccc2c(c1)N(CCC1CCCCN1C)c1ccccc1S2 (configuration not stated)
Reply: 1 (yes)

Ask: Strictly below 20% in Neu? CCc1cc(C(N)=S)ccn1 [ETHIONAMIDE]
Reply: 0 (no)

Ask: Strictly below 20% in Neu? NC(=O)N1c2ccccc2C=Cc2ccccc21 [CARBAMAZEPINE]
Reply: 1 (yes)

----------
Species on record: Rattus norvegicus
Test: Open TG-GATES - Regimen: Single
Type: toxicity, organism-based, Sprague-Dawley
Parameters: regimen Single, gender Male, age 6 weeks
Details: in vivo, po, 100 mg/kg, 6 h, tissue Blood, route gavage, dose level Low
MEASUREMENT_KIND: MCV (fL)
Use fL as the unit, but write only the number.

Looking up "Clc1ccccc1CN1CCc2sccc2C1" , I found its MCV recorded as 58.9

Looking up "C[C@H](CS)C(=O)N1CCC[C@H]1C(=O)O" , I found its MCV recorded as 66.5

Looking up "O=C(O)c1cc(/N=N/c2ccc(S(=O)(=O)Nc3ccccn3)cc2)ccc1O" , I found its MCV recorded as 63.9

Looking up CCc1cc(C(N)=S)ccn1 [ETHIONAMIDE] , I found its MCV recorded as 65.7

Looking up "O=C(O)c1cn(C2CC2)c2cc(N3CCNCC3)c(F)cc2c1=O" , I found its MCV recorded as 64.5
